system.under.test: Cytochrome P450 2C9 (Homo sapiens)
protocol: Cytochrome panel assay with activity outcomes; note: % is set by controls: 0 for no effect and ±100 for the full control effect
cond: recombinant CYP, pro-luciferin dealkylation, luminescence, p450-cyp2c9; series mostly up to 57.1 µM
The campaign covered roughly 16,000 compounds. About 4,000 (25%) were called active. Not shown: some 26% with an inconclusive outcome. These entries were drawn from the full list.
measurement.kind: activity, negative = inhibition

molecule	system.under.test	measurement
O=C(O)C12CC3(C(=O)O)CC(C(=O)O)(CC(C(=O)O)(C1)C3=O)C2=O	Cytochrome P450 2C9 (Homo sapiens)	-3.16% [at 11.4 µM] (inactive)
Cn1c(=O)c2[nH]c(CCCCc3nc4ccccc4[nH]3)nc2n(C)c1=O	Cytochrome P450 2C9 (Homo sapiens)	2.16% [at 11.4 µM] (inactive)
CN(CC(=O)O)CC(=O)O	Cytochrome P450 2C9 (Homo sapiens)	-7.68% [at 11.4 µM] (inactive)
CNC[C@@H](SC)c1ccc(O)c(O)c1	Cytochrome P450 2C9 (Homo sapiens)	0.961% [at 11.4 µM] (inactive)
O=C(N/N=C1/C[C@@H](O)[C@@H](O)[C@@H]2[C@H]3C(=O)N(c4ccc(F)cc4F)C(=O)[C@@H]3CC[C@@H]12)OCc1ccccc1	Cytochrome P450 2C9 (Homo sapiens)	-1.14% [at 11.4 µM] (inactive)
Nc1nc(N)c2[nH]cnc2n1 (tested in a mixture with another compound)	Cytochrome P450 2C9 (Homo sapiens)	-4.44% [at 11.4 µM] (inactive)
CC(=O)C=NCC(=O)O	Cytochrome P450 2C9 (Homo sapiens)	-1.6% [at 11.4 µM] (inactive)
CO[C@H]1COC(=O)[C@@H](C)COC(=O)[C@@H](Cc2ccccc2)NC(=O)C/C=C\[C@H]1C	Cytochrome P450 2C9 (Homo sapiens)	5.22% [at 11.4 µM] (inactive)
C/C(CCN1CCCc2nc(C)c(C)cc21)=N\O[C@@H](C)c1cn([C@H](CO)Cc2ccccc2)nn1	Cytochrome P450 2C9 (Homo sapiens)	-12.1% [at 11.4 µM] (inactive)
CCc1ncc(CO)n1Cc1cccc2ccccc12	Cytochrome P450 2C9 (Homo sapiens)	-1.15% [at 11.4 µM] (inactive)

Q: Entry "Cc1noc(C)c1-c1ccc2ncnc(NCc3ccccc3)c2c1" has what activity, negative = inhibition?
A: -8.92% [at 2.29 µM] (inactive)

Q: Entry OC1CC2CC[C@H](C1)N2CCCN1c2ccccc2Sc2ccc(Cl)cc21 (stereo partly drawn) has what activity, negative = inhibition?
A: 8.65% [at 11.4 µM] (inactive)

Q: Entry "C[C@H](CN(C)C)C(=O)c1ccccc1C(=O)O" has what activity, negative = inhibition?
A: 4.19% [at 11.4 µM] (inactive)

Q: Entry "Cn1c(=O)c2[nH]c(CCCCC(=O)O)nc2n(C)c1=O" has what activity, negative = inhibition?
A: -3.07% [at 11.4 µM] (inactive)

Q: Entry "O=C(O)c1ccc(S(=O)(=O)N=Nc2c(O)[nH]c3ccccc23)cc1" has what activity, negative = inhibition?
A: 3.79% [at 11.4 µM] (inactive)

Q: Entry "CN(C)Cc1ccccc1-c1ccc2ncnc(NC3CCNCC3)c2c1" has what activity, negative = inhibition?
A: 7.8% [at 2.29 µM] (inactive)

// data source = PubChem BioAssay AID1851
